tested on: Hs27 fibroblasts; test: Cell viability MTT assay on Hs27 fibroblasts; assay type: cell-based, human; conditions: Homo sapiens, HS27, 24 h, read-out: IC50 (Hs27)
quantity: IC50

**Q:** What IC50 value was documented for this compound, Cc1cc(O)c2c(=O)cc(-c3ccc(N(C)C)cc3)oc2c1-c1c(C)cc(O)c2c(=O)cc(-c3ccc(N(C)C)cc3)oc12 ?
**A:** > 200 µM

All figures here come from paper PMC10634270.
